# Method Notes: solvent given as SMILES
# Measurement Setup: in CC(C)OC(C)C
Measured Quantity: fluorescence lifetime (ns)
Report the figure in ns without appending any unit label.

Inquiry: Field request: fluorescence lifetime | item: COC(=O)C(Cc1ccc2oc(-c3ccc4c(c3)c3ccccc3n4-c3ccccc3)nc2c1)NC(=O)OC(C)(C)C (centres undefined)
Reply text: 1.66

Inquiry: Field request: fluorescence lifetime | item: `O=C1NC(=O)c2c1c1c3ccccc3[nH]c1c1[nH]c3ccccc3c21`
Reply text: 7.3

Inquiry: Field request: fluorescence lifetime | item: COC(=O)C(Cc1ccc2oc(-c3ccc(N(C)C)cc3)nc2c1)NC(=O)OC(C)(C)C (centres undefined)
Reply text: 1.2

Inquiry: Field request: fluorescence lifetime | item: COC(=O)C(Cc1ccc2oc(-c3ccc(Nc4ccccc4)cc3)nc2c1)NC(=O)OC(C)(C)C (centres undefined)
Reply text: 2.48
